Target: T1, OTULIN (OTU deubiquitinase with linear linkage specificity, FAM105B), His-tagged, biotin-labelled (human, UniProt Q96BN8 1-352, biotin (label; sites not stated))
T1 construct: OTULIN (FAM105B), cDNA in pET28a; also called HIS-OTULIN; source: E. coli BL21 (DE3), purified (His-tag Purification Resin), labelled with biotin; not shown: His6, N-terminal, kept
Assay: peptide or protein array; HuProt human proteome microarray; 5 ug/5 ml biotin-labelled LUBAC or OTULIN in solution, 1 h at room temperature; Cy5-streptavidin, scanned at 635 nm; BSA as negative control; hits: Z-score >= 3 and I_(Mean_Ratio) >= 1.4
Settings: both partners purified
RECORDED_METRIC: binding result

GBGT1 (natural protein, human, UniProt Q8N5D6 1-347, looked up, GBGT1; protein on the human proteome microarray; source: spotted on the HuProt human proteome microarray) MHRRRLALGLGFCLLAGTSLSVLWVYLENWLPVSYVPYYLPCPEIFNMKLHYKREKPLQPVVWSQYPQPKLLEHRPTQLLTLTPWLAPIVSEGTFNPELLQHIYQPLNLTIGVTVFAVGKYTHFIQSFLESAEEFFMRGYRVHYYIFTDNPAAVPGVPLGPHRLLSSIPIQGHSHWEETSMRRMETISQHIAKRAHREVDYLFCLDVDMVFRNPWGPETLGDLVAAIHPSYYAVPRQQFPYERRRVSTAFVADSEGDFYYGGAVFGGQVARVYEFTRGCHMAILADKANGIMAAWREESHLNRHFISNKPSKVLSPEYLWDDRKPQPPSLKLIRFSTLDKDISCLRS: binds
